Numbers sourced from patent US20220195012A1.

- target system: C3b (UniProt P01024)
- Sequence (P01024 23-667 limits assumed, chain 1 of 2): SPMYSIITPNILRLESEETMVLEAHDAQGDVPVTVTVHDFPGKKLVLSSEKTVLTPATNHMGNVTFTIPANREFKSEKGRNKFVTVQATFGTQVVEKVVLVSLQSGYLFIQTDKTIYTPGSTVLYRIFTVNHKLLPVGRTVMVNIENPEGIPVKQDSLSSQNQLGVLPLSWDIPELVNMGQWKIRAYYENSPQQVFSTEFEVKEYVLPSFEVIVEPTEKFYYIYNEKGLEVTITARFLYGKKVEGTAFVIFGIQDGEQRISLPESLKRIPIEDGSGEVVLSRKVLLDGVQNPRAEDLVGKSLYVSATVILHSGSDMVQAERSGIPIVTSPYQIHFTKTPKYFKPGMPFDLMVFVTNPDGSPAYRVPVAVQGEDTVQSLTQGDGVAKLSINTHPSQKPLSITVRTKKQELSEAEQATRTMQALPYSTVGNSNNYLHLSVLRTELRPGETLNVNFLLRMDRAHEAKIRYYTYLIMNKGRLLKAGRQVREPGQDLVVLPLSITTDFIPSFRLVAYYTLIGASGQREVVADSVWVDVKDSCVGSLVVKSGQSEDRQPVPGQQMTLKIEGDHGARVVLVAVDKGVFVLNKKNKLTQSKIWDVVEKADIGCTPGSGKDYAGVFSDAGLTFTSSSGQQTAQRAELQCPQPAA
- Sequence (P01024 749-1663 limits assumed, chain 2 of 2): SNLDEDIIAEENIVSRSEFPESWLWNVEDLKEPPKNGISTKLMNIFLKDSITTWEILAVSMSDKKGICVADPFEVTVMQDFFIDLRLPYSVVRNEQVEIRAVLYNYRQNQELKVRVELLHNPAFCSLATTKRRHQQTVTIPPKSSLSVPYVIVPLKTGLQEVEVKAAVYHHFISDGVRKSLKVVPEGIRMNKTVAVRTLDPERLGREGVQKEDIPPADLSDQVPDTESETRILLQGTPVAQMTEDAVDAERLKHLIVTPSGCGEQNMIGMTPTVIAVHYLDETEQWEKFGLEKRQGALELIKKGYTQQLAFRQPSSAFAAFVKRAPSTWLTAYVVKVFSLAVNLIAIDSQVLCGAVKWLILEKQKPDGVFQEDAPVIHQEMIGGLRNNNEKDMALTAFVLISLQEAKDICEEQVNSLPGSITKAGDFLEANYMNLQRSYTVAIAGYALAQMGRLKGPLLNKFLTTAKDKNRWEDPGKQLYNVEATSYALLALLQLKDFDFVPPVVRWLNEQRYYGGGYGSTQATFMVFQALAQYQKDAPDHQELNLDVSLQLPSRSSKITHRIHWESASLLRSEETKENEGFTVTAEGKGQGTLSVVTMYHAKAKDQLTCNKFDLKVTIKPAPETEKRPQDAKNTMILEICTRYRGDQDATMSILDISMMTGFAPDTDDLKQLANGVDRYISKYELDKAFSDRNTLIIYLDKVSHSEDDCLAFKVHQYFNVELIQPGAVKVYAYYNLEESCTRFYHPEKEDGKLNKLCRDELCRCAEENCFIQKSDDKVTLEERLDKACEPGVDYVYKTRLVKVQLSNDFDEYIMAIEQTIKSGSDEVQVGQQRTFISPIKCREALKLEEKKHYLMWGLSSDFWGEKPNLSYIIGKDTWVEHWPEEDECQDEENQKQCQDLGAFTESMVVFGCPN
- assay: cell-based or functional assay
readout label: C3b CFA: Time (min.) for 50% cleavage of C3B α′-chain (min)
Supply the numeric figure in min, leaving out any unit text.

Kindly indicate its recorded C3b CFA: Time (min.) for 50% cleavage of C3B α′-chain. Item: D2D3M3M4 (L205K) (protein) CEVPTRLNSASLKQPYITQNYFPVGTVVEYECRPGYRREPSLSPKLTCLQNLKWSTAVEFCKKKSCPNPGEIRNGQIDVPGGILFGATISFSCNTGYKLFGSTSSFCKISGSSVQWSDPLPECREIYCTPPPKIKNGKHTFSEVEVFEYLDAVTYSCDPAPGPDPFSLIGESTIYCGDNSVWSRAAPECKVVKCRFPVVENGKQISGFGKKFYYKATVMFECDKGFYLDGSDTIVCDSNSTWDPPVPKCLKVL
104
